protocol-summary: Octanol/water partition coefficient, logP of compound at pH 7.4 by shake-flask method
Format: physicochemical
readout: logD
Answers are plain numbers.

The examples below pair each entry with its known result.
CN1CCC(n2cc(Nc3nc(NC4(C)CC4)c4c(=O)n(-c5cn(C)nn5)ccc4n3)cn2)CC1 : 2.5
CN1CCC(n2cc(Nc3nc(NC4(C)CC4)c4c(=O)n(-c5cncnc5)ccc4n3)cn2)CC1 : 2.3
CN1CCC(n2cc(Nc3nc(NC4(C)CC4)c4c(=O)n(C)ccc4n3)cn2)CC1 : 2.4
CC(C)n1ccc2nc(Nc3cnn(C4CCN(C)CC4)c3)nc(NC3(C)CC3)c2c1=O : 3.3

Now consider a different molecule.
Request: Bench note: what logD did CN(C)C(=O)CN1CCC(n2cc(Nc3nc(NC4(C)CC4)c4c(=O)n(C)ccc4n3)cn2)CC1 show?
Response: 2.4
